experiment: Storage stability of IPBC in Dowanol TPM solution with cobalt dryer and stabilizer, IPBC amount by HPLC; format: physicochemical; conditions: after two weeks storage at 40° C., solution in Dowanol TPM with 10% by weight IPBC, 5% by weight Octasoligen-Cobalt 8, 5% by weight stabilizer
Recorded metric: Amount of IPBC (2 weeks, 40° C.) (%)

compound="Cc1ccc(O)c(-n2nc3ccccc3n2)c1 [Example 4]" measurement_unit=% recorded_result=9.3
compound="OCCc1ccc(O)c(-n2nc3ccccc3n2)c1 [Example 1]" measurement_unit=% recorded_result=10.4
compound="CC(C)(C)CC(C)(C)c1ccc(O)c(-n2nc3ccccc3n2)c1 [Example 3]" measurement_unit=% recorded_result=9.5
compound="C=C(C)C(=O)OCCc1ccc(O)c(-n2nc3ccccc3n2)c1 [Example 2]" measurement_unit=% recorded_result=9.3
compound="CC(C)(C)c1ccc(O)c(-n2nc3ccccc3n2)c1 [Example 5]" measurement_unit=% recorded_result=9.8

----------
assay: Storage stability of IPBC in Dowanol TPM solution with cobalt dryer and stabilizer, IPBC amount by HPLC; assay type: physicochemical; conditions: at the beginning, solution in Dowanol TPM with 10% by weight IPBC, 5% by weight Octasoligen-Cobalt 8, 5% by weight stabilizer
Recorded metric: Amount of IPBC (start) (%)

chemical_smiles=OCCc1ccc(O)c(-n2nc3ccccc3n2)c1 measurement_unit=% recorded_result=11.3
chemical_smiles=CC(C)(C)CC(C)(C)c1ccc(O)c(-n2nc3ccccc3n2)c1 measurement_unit=% recorded_result=9.9
chemical_smiles=C=C(C)C(=O)OCCc1ccc(O)c(-n2nc3ccccc3n2)c1 measurement_unit=% recorded_result=9.9
chemical_smiles=Cc1ccc(O)c(-n2nc3ccccc3n2)c1 measurement_unit=% recorded_result=9.9
chemical_smiles=CC(C)(C)c1ccc(O)c(-n2nc3ccccc3n2)c1 measurement_unit=% recorded_result=9.8

Attribution: patent US20090036555A1
